Experiment: Volume of distribution at steady state in rat at 2 mg/kg, iv and 5 mg/kg, po
Assay type: ADME, organism-based
Conditions: in vivo, read-out: Vdss
MEASURED ENDPOINT: Vd (L/kg)

1) Cn1cnc(-c2ccccc2)c1-c1cc2c(N)ncnc2s1; 1.4
2) Cn1cnc(-c2ccccc2)c1-c1nc2c(N)ncnc2s1; 1.2

====

Test: Protein binding in rat plasma
Format: ADME, cell-free
Conditions: read-out: PPB (converted)
MEASURED ENDPOINT: fraction unbound

Known results for compounds:
1. Nc1ncnc2sc(-c3c(-c4ccccc4)ncn3Cc3ccccc3N3CCOCC3)nc12; 0.058
2. CC(C)Cn1cnc(-c2ccccc2)c1-c1nc2c(N)ncnc2s1; 0.059
3. Cn1cnc(-c2ccccc2)c1-c1nc2c(N)ncnc2s1; 0.052

[1] Cn1cnc(-c2ccccc2)c1-c1cc2c(N)ncnc2s1
[2] Nc1ncnc2sc(-c3c(-c4ccccc4)ncn3C[C@H]3CCCO3)nc12
[3] Nc1ncnc2sc(-c3c(-c4ccccc4)ncn3CC3CCCCC3)nc12
Data request: Please put the entries in order of rising fraction unbound. Please express your ranking as an ordered list of the labels.
Data returned: 3, 1, 2
